Test system: UO-31 renal
assay: NCI-60 one-dose screen, 48 h (100 = growth as untreated, 0 = no growth, -100 = all killed)
condition label: 10 µM unless noted
This is part of a sample that, as a whole, favours compounds with a hit. Of some 83,000 tested, about 20% had one in any assay.
Recorded growth determines the group label, using lower (below 40%), middle (40% to below 80%), upper (80% or more)

Completed entries (count: 3):
CCOC(=O)c1csc(NC(=O)COc2cccc(/C=C3\CSc4ccccc4C3=O)c2)n1    lower
C=CC(=O)Nc1cccc(-c2nc(SC)nc(NCCN3CCOCC3)c2C#N)c1    middle
O=C1NC(=Nc2ccc(O)cc2)S/C1=C\c1cccc(Cl)c1    middle

Req: Into which category would you place O=C(O)c1c(=O)cccc2ssc12 ?
Resp: lower

Req: Into which category would you place COc1cc(C(=O)/C=C/c2cccnc2Nc2ccc(Cl)cc2)cc(OC)c1OC ?
Resp: lower

Req: Into which category would you place Nc1n[nH]c2ccc([C@@H]3Nc4ccc5[nH]ncc5c4[C@H]4C5C=CC(C5)[C@@H]34)cc12 (some centres not stated) ?
Resp: middle
